Entry source: paper PMC7392083

experimental_system: human intelectin-1 (hItln-1) (Homo sapiens, UniProt Q8WWA0)
Sequence (Q8WWA0 19-313): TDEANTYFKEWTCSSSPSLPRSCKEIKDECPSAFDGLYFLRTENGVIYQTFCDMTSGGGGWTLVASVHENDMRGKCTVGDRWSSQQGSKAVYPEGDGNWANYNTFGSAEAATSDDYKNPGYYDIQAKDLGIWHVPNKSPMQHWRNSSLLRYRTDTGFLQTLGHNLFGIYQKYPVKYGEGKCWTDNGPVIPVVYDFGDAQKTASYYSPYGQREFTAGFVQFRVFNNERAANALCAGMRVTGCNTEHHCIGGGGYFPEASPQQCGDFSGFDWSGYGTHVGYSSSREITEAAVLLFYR
assay_explanation: Biolayer interferometry
Format: binding
details: ΔΔG = 0.593 (kcal/mol) ln(IC50,row/IC50,column); column Galf
Assign ΔΔG relative free energy of binding compared to Galf to each entry below.
API: value field is a number in kcal/mol; no unit string.

Q) Record OC[C@@H](O)[C@H]1O[C@H](O)[C@@H](O)[C@@H](O)[C@@H]1O : what is its ΔΔG relative free energy of binding compared to Galf with human intelectin-1 (hItln-1) (Homo sapiens, UniProt Q8WWA0)?
A) 0.8

Q) Would you mind doing C=CCO[C@@]1(C(=O)O)O[C@H]([C@H](O)CO)[C@H](O)[C@H](O)[C@@H]1O as well?
A) -0.6

Q) Please answer likewise for O=P(O)(O)OC[C@H](O)CO [Glycerol 1-phosphate, D-glycerol 1-phosphate]
A) 0.1

Q) One more compound: OC[C@H](O)[C@H]1O[C@H](O)[C@@H](O)[C@@H](O)[C@@H]1O
A) 2.0

----------
For each of the compounds below, state its ΔΔG relative free energy of binding compared to KO.
experimental_system: human intelectin-1 (hItln-1) (Homo sapiens)
assay_explanation: Biolayer interferometry
Type: binding
details: ΔΔG = 0.593 (kcal/mol) ln(IC50,row/IC50,column); column KO
Give just the number in kcal/mol; leave the unit off.

Q) Given O=P(O)(O)OC[C@H](O)CO [Glycerol 1-phosphate, D-glycerol 1-phosphate] , state its recorded ΔΔG relative free energy of binding compared to KO.
A) 0.7

Q) # repeat for OC[C@H](O)[C@H]1O[C@H](O)[C@@H](O)[C@@H](O)[C@@H]1O
A) 2.4

Q) Could you do the same for OC[C@@H](O)[C@@H]1O[C@@H](O)[C@H](O)[C@H]1O , please?
A) 0.6

Q) Another compound to look at: OC[C@@H](O)[C@H]1O[C@H](O)[C@@H](O)[C@@H](O)[C@@H]1O
A) 1.3

----------
experimental_system: human intelectin-1 (hItln-1) (Homo sapiens)
measurement_label: IC50 (µM)
Just the number please, in µM, no unit attached.

Q) Quick one: IC50 of C=CCO[C@@]1(C(=O)O)O[C@H]([C@H](O)CO)[C@H](O)[C@H](O)[C@@H]1O ?
A) 700

----------
Would you kindly list ΔΔG relative free energy of binding compared to KDO for each of these molecules?
experimental_system: human intelectin-1 (hItln-1) (Homo sapiens)
assay_explanation: Biolayer interferometry
Type: binding
details: ΔΔG = 0.593 (kcal/mol) ln(IC50,row/IC50,column); column KDO
Report only the number, with the unit kcal/mol understood.

Q) Name the recorded ΔΔG relative free energy of binding compared to KDO for OC[C@@H](O)[C@@H]1O[C@@H](O)[C@H](O)[C@H]1O [Galf, β-D-galactofuranose] .
A) 0.1

Q) Also, OC[C@@H](O)[C@H]1O[C@H](O)[C@@H](O)[C@@H](O)[C@@H]1O [D,D-heptose, D-glycero-α-D-manno-heptose] please.
A) 0.9

Q) Then OC[C@H](O)[C@H]1O[C@H](O)[C@@H](O)[C@@H](O)[C@@H]1O [L,D-heptose, L-glycero-α-D-manno-heptose] ?
A) 2.0

Q) Another molecule to look at: O=P(O)(O)OC[C@H](O)CO [Glycerol 1-phosphate, D-glycerol 1-phosphate]
A) 0.2
